System: SK-MEL-28 melanoma
test_protocol: NCI tumour cell line growth inhibition, 48 h
Could you please report measured TGI for the items listed next?
Use µM as the unit, but write only the number.

Entry under review: `CC(C)=CCC[C@@H](C)c1c(O)c(O)c(C)c2nc3ccccc3nc12` . Reported TGI?
23.8

Entry under review: `COc1cc(OC)cc(-c2n[nH]nc2-c2ccc3c(c2)OCO3)c1` . Reported TGI?
43.5

====

Tested on: SK-OV-3 ovarian
test_protocol: NCI tumour cell line growth inhibition, 48 h
Where a SMILES comes first, the peptide text is derived from it. [ ]: non-standard residue; d: D form. The star is where a group is joined. ξ: configuration not given here. 4Abz = Nc1ccc(C(=O)O)cc1; ξL = CC(C)CC(N)C(=O)O; NHOH = ON*
endpoint_name: TGI

Entry under review: `CCOc1cccc2cccnc12` . Reported TGI?
> 100 µM

Entry under review: COC1=CC(=O)c2c(O)c3c(c(O)c2C1=O)CC(C)(O)OC3 (stereo not given) . Reported TGI?
58.9 µM

Entry under review: `CO/C=C(/C(=O)OC)c1ccccc1[C@H]1C[C@@H]1c1ccc(OC)cc1` . Reported TGI?
60.7 µM

Entry under review: `NCCCCN(CCCN)C(=O)OCc1ccccc1` . Reported TGI?
> 100 µM

Entry under review: `Cc1cc(S(=O)(=O)Nc2nc(N)n(-c3ccccc3)n2)c(S)cc1Cl` . Reported TGI?
> 100 µM

Entry under review: `NC(=O)NC1=NCCC(=O)N1CCc1c[nH]c2ccccc12` . Reported TGI?
> 100 µM

Entry under review: `N=C(N)c1ccc(-c2ccc(-c3ccco3)o2)cc1` . Reported TGI?
21.2 µM

Entry under review: `COC1=C(NC(C)=O)C(=O)c2nc3n(c2C1=O)CCC3` . Reported TGI?
> 100 µM

Entry under review: `Clc1cc(Cl)c2n[se]nc2c1` . Reported TGI?
> 100 µM

Entry under review: `O=c1c2ccccc2oc2nccnc12` . Reported TGI?
> 100 µM

Entry under review: Nc1ncnc2c1ncn2C1OC(CO)C(O)C1O (stereo not given) . Reported TGI?
> 450 µM

Entry under review: C/C(=C/CC[C@](C)(OC1OC(CO)C(O)C(O)C1OC1OC(C)C(O)C(O)C1O)[C@H]1CC[C@]2(C)[C@@H]1CC[C@@H]1[C@@]3(C)CC[C@H](O)C(C)(C)[C@@H]3C[C@H](O)[C@]12C)CO (stereo not given in full) . Reported TGI?
> 100 µM

Entry under review: `c1ccc2c3c(c(N4CCNCC4)nc2c1)CCCC3` . Reported TGI?
42.7 µM

Entry under review: `COc1cc2[nH]c(=O)[nH]c2c2c(C)c[nH]c12` . Reported TGI?
> 100 µM

Entry under review: `CC(=N\O)/C(C)=N/O.CC(=N\O)/C(C)=N/O.[Pd]` . Reported TGI?
> 10 µM

Entry under review: `O=c1[nH]c(=O)n(COCCO)cc1-c1ccccc1` . Reported TGI?
> 100 µM

Entry under review: CC(C)CC(NC(=O)[C@@H]1CCCN1C(=O)CNC(=O)c1ccc(N)cc1)C(=O)N[C@H](C)C(=O)NO (stereo not given in full) (H-[4Abz]GP[ξL][dA]-{NHOH}) . Reported TGI?
> 100 µM

Entry under review: `O=C1NC(N2CCOCC2)=N/C1=C\c1ccccc1` . Reported TGI?
> 100 µM

Entry under review: `COC(=O)/C=C1\C(=O)N(C(C)=O)c2ccccc21` . Reported TGI?
29.7 µM

Entry under review: COC1=C(C(=O)OC(C)(C)C)C23CCCCC2(C(C(=O)OC(C)(C)C)=C(OC)C3C(=O)OC(C)(C)C)C1C(=O)OC(C)(C)C (stereo not given) . Reported TGI?
> 100 µM

Entry under review: `Oc1cccc(-c2cc(=S)ss2)c1` . Reported TGI?
37.7 µM

Entry under review: CC1CN=C(c2ccc3c(c2)Cc2cc(C4=NCC(C)N4)ccc2-3)N1 (stereo not given) . Reported TGI?
> 100 µM

Entry under review: `Cc1cc2nc(N)n[n+]([O-])c2cc1C` . Reported TGI?
> 100 µM

Entry under review: `COc1ccc(NC(=O)c2cc(NC(=O)/C=C/c3ccccc3)c(OC)c(OC)c2)cc1` . Reported TGI?
> 100 µM

Entry under review: `OCCOCn1nc(-c2ccccc2)nc1-c1cnccn1` . Reported TGI?
> 100 µM

Entry under review: `COc1ccc(-c2ccc(/C=N/n3cnn(CN4CCN(C)CC4)c3=S)o2)c([N+](=O)[O-])c1` . Reported TGI?
> 100 µM

Entry under review: CCCCOP(=O)(OCCCC)C(NS(=O)(=O)c1ccccc1)(C(=O)OCC)C(F)(F)F (stereo not given) . Reported TGI?
> 100 µM

Entry under review: `NC(=O)c1ccc(N)nc1` . Reported TGI?
> 400 µM

Entry under review: `COc1ccc(/C=N/N=C(N)N)c(C(=O)O)c1OC` . Reported TGI?
> 100 µM

Entry under review: O=C1/C=C(/c2ccc(O)cc2)[C@H](O)Cc2ccc(OC3OC(CO)C(O)C(O)C3O)cc2O1 (stereo not given in full) (tested in a mixture with another compound) . Reported TGI?
> 100 µM
